ASSAY DETAILS: self-splicing fitness, log relative to wild type (ln ratio); higher = more splicing; Tetrahymena group I intron in knt gene, E. coli kanamycin selection, DiMSum; sequences stand for … in CUCUCU…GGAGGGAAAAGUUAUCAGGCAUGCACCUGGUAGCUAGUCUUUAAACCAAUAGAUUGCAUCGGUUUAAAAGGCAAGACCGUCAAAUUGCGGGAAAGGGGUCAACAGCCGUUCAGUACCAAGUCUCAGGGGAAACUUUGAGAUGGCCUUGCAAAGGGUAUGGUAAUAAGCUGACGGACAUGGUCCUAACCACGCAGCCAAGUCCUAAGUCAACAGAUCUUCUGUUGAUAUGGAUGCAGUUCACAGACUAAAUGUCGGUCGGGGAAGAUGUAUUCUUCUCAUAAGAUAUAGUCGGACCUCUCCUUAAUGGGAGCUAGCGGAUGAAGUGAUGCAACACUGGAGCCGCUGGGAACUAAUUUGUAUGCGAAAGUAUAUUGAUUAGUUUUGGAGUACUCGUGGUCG;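 further: selection with 25 µg/mL kanamycin versus none on LB agar overnight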
DETAILS: 30 °C
Labels assigned by self-splicing fitness (ln) range: class A (below -3), class B (-3 to below -1), class C (-1 or more)

    macromolecule_sequence  answer_label
 0    GAAAAGCAAUAUUACGCCGC       class B
 1    GCAGAGCAAUAUUACGUUUG       class A
 2    AAAGAGCAAUAUUACGUGCA       class B
 3    CGAAAGCAAUAUUACGUCUA       class C
 4    GUUAAGCAAUAUUACGUAGC       class B
 5    GCCUAGCAAUAUUACGAAGA       class B
 6    UCACAGCAAUAUUACGGUCA       class C
 7    CUACAGCAAUAUUACGCUUU       class A
 8    ACAAAGCAAUAUUACGACAC       class B
 9    GGAAAGCAAUAUUACGCUAU       class B
10    GGCGAGCAAUAUUACGGGCA       class C
